Here, each record is paired with measured EC50 data.
# measured-on: UniProt:P41594
# Sequence (P41594 21-1180 isoform P41594-2): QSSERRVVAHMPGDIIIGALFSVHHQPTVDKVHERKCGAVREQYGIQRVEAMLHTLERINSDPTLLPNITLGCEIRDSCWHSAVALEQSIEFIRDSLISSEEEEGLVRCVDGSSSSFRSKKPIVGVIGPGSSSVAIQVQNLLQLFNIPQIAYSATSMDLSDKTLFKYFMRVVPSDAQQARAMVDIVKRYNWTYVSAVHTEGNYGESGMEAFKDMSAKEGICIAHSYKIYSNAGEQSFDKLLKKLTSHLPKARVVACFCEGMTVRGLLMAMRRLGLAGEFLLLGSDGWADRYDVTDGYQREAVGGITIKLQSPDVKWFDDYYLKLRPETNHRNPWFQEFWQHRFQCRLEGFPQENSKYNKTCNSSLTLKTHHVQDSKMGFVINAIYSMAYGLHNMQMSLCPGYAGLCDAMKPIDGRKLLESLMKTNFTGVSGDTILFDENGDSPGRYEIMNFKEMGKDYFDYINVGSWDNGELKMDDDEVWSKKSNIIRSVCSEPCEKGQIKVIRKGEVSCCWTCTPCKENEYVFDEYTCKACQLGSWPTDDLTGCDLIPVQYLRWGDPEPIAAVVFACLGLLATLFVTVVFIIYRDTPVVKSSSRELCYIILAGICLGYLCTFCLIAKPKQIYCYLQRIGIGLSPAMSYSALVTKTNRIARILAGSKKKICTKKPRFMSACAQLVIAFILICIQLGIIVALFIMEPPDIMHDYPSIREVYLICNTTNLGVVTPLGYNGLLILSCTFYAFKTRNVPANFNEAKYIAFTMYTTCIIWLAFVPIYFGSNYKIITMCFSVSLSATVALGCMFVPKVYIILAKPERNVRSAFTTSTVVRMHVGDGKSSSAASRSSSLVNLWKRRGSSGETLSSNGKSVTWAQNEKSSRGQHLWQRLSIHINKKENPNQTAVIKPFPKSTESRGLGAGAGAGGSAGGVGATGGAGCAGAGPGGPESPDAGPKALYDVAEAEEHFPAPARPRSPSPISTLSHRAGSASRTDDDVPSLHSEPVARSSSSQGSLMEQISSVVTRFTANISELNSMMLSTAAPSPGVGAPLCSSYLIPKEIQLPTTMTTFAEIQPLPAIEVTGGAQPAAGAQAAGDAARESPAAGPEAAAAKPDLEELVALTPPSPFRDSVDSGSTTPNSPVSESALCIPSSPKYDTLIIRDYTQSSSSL
# method: mGluR5 FLIPR Assay
# conditions-used: positive modulator activity; HEK293 (ZF) cells with human mGluR5A and rat GLAST; Ca++ response to ~EC10 glutamate

Some solved entries appear below for comparison.
| molecule | measured-value |
| --- | --- |
| O=C1N[C@H](c2cncc(C#Cc3ccncc3)c2)[C@@H](c2ccc(F)cc2)O1 | < 0.1 µM |
| O=C1N[C@H](c2ccnc(C#Cc3cccnc3)c2)[C@@H](c2ccccc2)O1 | < 0.1 µM |
| COc1ccccc1[C@H]1OC(=O)N[C@@H]1c1cncc(C#Cc2ccccc2)c1 (single isomer, unassigned) | > 3 µM |

Could you share what EC50 was measured for COc1ccccc1[C@@H]1OC(=O)N[C@@H]1c1cncc(C#Cc2ccccc2)c1 (single isomer, unassigned) , tested on UniProt:P41594?
> 1 µM

Can you handle COc1cccc([C@H]2OC(=O)N[C@@H]2c2cncc(C#Cc3csc(C)n3)c2)c1 (single isomer, unassigned) next?
> 1 µM

Quick one: COc1cccc([C@H]2OC(=O)N[C@@H]2c2cccc(C#Cc3cccc(C)n3)c2)c1
> 1 µM

Now try O=C1N[C@H](c2cc(C#Cc3cncc(F)c3)cnc2F)[C@@H](c2ccc(F)cc2)O1 .
< 0.1 µM
